molecular target: recombinant human PAD2 (human, UniProt Q9Y2J8 1-665); assay: cell-based or functional assay
Sequence (Q9Y2J8 whole entry): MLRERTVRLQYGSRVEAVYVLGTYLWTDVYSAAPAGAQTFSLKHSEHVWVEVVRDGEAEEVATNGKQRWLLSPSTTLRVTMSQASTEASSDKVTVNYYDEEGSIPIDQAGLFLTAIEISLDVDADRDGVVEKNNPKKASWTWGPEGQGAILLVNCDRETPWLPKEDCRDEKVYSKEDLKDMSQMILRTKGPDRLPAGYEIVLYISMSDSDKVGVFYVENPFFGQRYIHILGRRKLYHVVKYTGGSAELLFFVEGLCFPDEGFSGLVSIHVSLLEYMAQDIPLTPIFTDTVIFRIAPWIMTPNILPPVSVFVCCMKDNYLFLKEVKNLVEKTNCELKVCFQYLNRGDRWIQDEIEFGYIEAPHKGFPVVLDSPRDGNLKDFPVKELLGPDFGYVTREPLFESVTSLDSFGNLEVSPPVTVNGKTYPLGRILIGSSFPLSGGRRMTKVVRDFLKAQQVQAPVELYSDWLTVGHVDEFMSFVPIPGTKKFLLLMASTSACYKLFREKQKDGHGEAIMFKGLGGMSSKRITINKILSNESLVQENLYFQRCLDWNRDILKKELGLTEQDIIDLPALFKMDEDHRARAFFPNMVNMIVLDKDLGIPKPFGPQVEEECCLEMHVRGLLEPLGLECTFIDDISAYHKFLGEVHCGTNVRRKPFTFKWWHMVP
Square brackets hold non-standard residues; d marks the D form. Orn(fluoroacetimidoyl) = N=C(CF)NCCC[C@H](N)C(=O)O
experimental readout: conversion of 0708-30 by PAD2, 10 µM inhibitor (%)
Respond numerically; units are % and should not be typed.

-- ask Any idea what conversion of 0708-30 by PAD2, 10 µM inhibitor was measured for Ac-FFDSHKFD[Orn(fluoroacetimidoyl)]DFIYSD-NH2 (SMILES CC[C@H](C)[C@H](NC(=O)[C@H](Cc1ccccc1)NC(=O)[C@H](CC(=O)O)NC(=O)[C@H](CCCNC(=N)CF)NC(=O)[C@H](CC(=O)O)NC(=O)[C@H](Cc1ccccc1)NC(=O)[C@H](CCCCN)NC(=O)[C@H](Cc1c[nH]cn1)NC(=O)[C@H](CO)NC(=O)[C@H](CC(=O)O)NC(=O)[C@H](Cc1ccccc1)NC(=O)[C@H](Cc1ccccc1)NC(C)=O)C(=O)N[C@@H](Cc1ccc(O)cc1)C(=O)N[C@@H](CO)C(=O)N[C@@H](CC(=O)O)C(N)=O) [0741-03FA] ?
-- reply 39
